Data provenance: patent US10363239B2

# System: mu opiate receptor (MOR)
# method_description: MOR agonist activity using [35S]GTPγS binding assay in striatal membranes
# Assay type: biochemical
# recorded_conditions: Series B; 1 μM compound + β-FNA, relative to DAMGO + BFNA
Quick reference for % DAMGO + BFNA among some compounds
endpoint_label: % DAMGO + BFNA (%)

| compound | assay_target | endpoint_label | scale_unit | recorded_number |
| --- | --- | --- | --- | --- |
| COc1c2c(cc3c1C(CC(=O)CCc1ccccc1)N(C)CC3)OCO2 (stereo not shown) | mu opiate receptor (MOR) | % DAMGO + BFNA | % | 294.0 |
| COc1c2c(cc3c1C(CC(=O)Cc1ccc(Br)cc1)[N+](C)(C)CC3)OCO2 (stereo not shown) | mu opiate receptor (MOR) | % DAMGO + BFNA | % | 120.0 |
| COCOc1ccc(CCC(=O)CC2c3c(cc4c(c3OC)OCO4)CC[N+]2(C)C)cc1 (stereo not shown) | mu opiate receptor (MOR) | % DAMGO + BFNA | % | 169.6 |
| COc1ccc(CCC(=O)CC2c3c(cc4c(c3OC)OCO4)CC[N+]2(C)C)cc1 (stereo not shown) | mu opiate receptor (MOR) | % DAMGO + BFNA | % | 109.4 |
| COc1ccccc1C(=O)CC1c2c(cc3c(c2OC)OCO3)CC[N+]1(C)C (stereo not shown) | mu opiate receptor (MOR) | % DAMGO + BFNA | % | 211.8 |
| COc1ccc(CCC(=O)CC2c3c(cc4c(c3OC)OCO4)CC[N+]2(C)C)cc1OC (stereo not shown) | mu opiate receptor (MOR) | % DAMGO + BFNA | % | 163.9 |
| COc1ccc(CCC(=O)CC2c3c(cc4c(c3OC)OCO4)CC[N+]2(C)C)c(OC)c1 (stereo not shown) | mu opiate receptor (MOR) | % DAMGO + BFNA | % | 632.7 |
